- system-under-test: AhR (Homo sapiens)
- Construct: host or cells: human HepG2 cells
- Sequence (P35869 11-848): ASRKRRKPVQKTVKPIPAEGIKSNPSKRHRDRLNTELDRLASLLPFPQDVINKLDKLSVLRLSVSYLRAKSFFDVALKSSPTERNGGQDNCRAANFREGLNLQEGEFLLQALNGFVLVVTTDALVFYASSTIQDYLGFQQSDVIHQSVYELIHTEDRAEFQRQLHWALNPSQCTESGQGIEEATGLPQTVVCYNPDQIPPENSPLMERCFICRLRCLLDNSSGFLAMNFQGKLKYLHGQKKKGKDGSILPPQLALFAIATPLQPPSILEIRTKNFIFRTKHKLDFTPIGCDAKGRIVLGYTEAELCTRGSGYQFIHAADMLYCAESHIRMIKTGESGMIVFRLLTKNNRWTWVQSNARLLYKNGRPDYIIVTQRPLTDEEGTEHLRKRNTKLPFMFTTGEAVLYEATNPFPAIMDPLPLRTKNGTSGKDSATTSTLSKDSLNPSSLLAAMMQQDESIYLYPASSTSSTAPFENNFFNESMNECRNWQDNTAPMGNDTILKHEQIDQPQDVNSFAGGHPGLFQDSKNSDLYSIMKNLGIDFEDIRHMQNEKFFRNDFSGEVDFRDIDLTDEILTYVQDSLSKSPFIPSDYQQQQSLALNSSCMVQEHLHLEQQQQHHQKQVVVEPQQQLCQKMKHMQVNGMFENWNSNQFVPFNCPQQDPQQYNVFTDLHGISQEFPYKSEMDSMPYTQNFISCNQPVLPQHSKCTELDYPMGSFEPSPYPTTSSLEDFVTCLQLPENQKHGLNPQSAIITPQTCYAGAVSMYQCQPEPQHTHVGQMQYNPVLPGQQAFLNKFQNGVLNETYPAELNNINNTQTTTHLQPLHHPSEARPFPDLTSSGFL
- assay-explanation: EROD assay (7-ethoxy-resorufin-O-deethylase; CYP1A1 activity) in human HepG2 cells
- Assay type: cell-based
- recorded-conditions: HepG2, human HepG2 cells, Plate 2
For each record, check the reported EC90: if it is below 200 nM write met, else write not met.

Consider the following illustrative entries.
1. CC[C@H](O)c1csc(C(=O)c2c[nH]c3cc(F)ccc23)n1; met
2. CC[C@H](N)c1csc(C(=O)c2c[nH]c3ccc(F)cc23)n1; met
3. O=C(c1nc(C2(O)CC2)cs1)c1c[nH]c2cc(F)ccc12; met
4. NC1(c2csc(C(=O)c3c[nH]c4cc(F)ccc34)n2)CC1; met
5. CCC(=O)c1csc(C(=O)c2c[nH]c3cc(F)ccc23)n1; not met
6. CC(C)(O)c1csc(C(=O)c2c[nH]c3cc(F)ccc23)n1; not met
7. CC(C)(N)c1csc(C(=O)c2c[nH]c3cc(F)ccc23)n1; met

With those in mind, consider the next molecule.
Criterion: EC90 strictly below 200 nM. Is it met by N[C@@H](c1csc(C(=O)c2c[nH]c3cc(F)ccc23)n1)C(F)(F)F ?
met

---

- system-under-test: AhR (Homo sapiens, UniProt P35869)
- Construct: host or cells: human HepG2 cells
- assay-explanation: EROD assay (7-ethoxy-resorufin-O-deethylase; CYP1A1 activity) in human HepG2 cells
- Format: cell-based
- recorded-conditions: human HepG2 cells, Plate 2
- Method: CYP1A1 induction is under the control of the AhR signaling pathway. This Example describes an in vitro assay (7-ethoxy-resorufin-O-deethylase (EROD) assay) that evaluated the AhR modulating activities of the indole compounds described herein. […] The activity of CYP1A1 in the cells was measured by the conversion of substrate 7-ethoxyresorufin, with the readout being a fluorescence signal associated with the conversion product. […]
experimental-readout: pEC50
# log scale: pEC50 equals minus log10 of the concentration in mol/L

Solved entries (count: 5):
1. O=C(c1nc(C2(O)CC2)cs1)c1c[nH]c2cc(F)ccc12; 7.58
2. N[C@@H](c1csc(C(=O)c2c[nH]c3ccccc23)n1)C(F)(F)F; 7.30
3. N[C@H](c1csc(C(=O)c2c[nH]c3ccccc23)n1)C(F)(F)F; 7.18
4. COC(=O)c1csc(C(=O)c2c[nH]c3ccccc23)n1 [ARI-001, ITE, reference compound]; 4.54
5. CC[C@H](O)c1csc(C(=O)c2c[nH]c3cc(F)ccc23)n1; 6.98

# pEC50 lookup, item CC[C@@H](N)c1csc(C(=O)c2c[nH]c3ccc(F)cc23)n1
6.91

Bench note: what pEC50 did CC(C)(O)c1csc(C(=O)c2c[nH]c3cc(F)ccc23)n1 show?
6.43

Entry N[C@@H](c1csc(C(=O)c2c[nH]c3cc(F)ccc23)n1)C(F)(F)F has what pEC50?
7.47

Request the reported pEC50 associated with N[C@H](c1csc(C(=O)c2c[nH]c3cc(F)ccc23)n1)C(F)(F)F
7.65

---

- Test system: human hepatocytes
- assay-explanation: Hepatocyte intrinsic clearance assay (metabolic stability), human hepatocytes
- Format: in vitro ADME
- recorded-conditions: Human Hepatocytes; well stirred liver model, fu=1
Below, each entry is listed alongside its reported EH (hepatic extraction ratio).
Write the value in % as a bare number.

1) CC[C@H](O)c1csc(C(=O)c2c[nH]c3ccc(F)cc23)n1; 26.5
2) N[C@H](c1csc(C(=O)c2c[nH]c3cc(F)ccc23)n1)C(F)(F)F; 23.7
3) CC(C)(O)c1csc(C(=O)c2c[nH]c3ccccc23)n1; 25.9
4) NC(c1csc(C(=O)c2c[nH]c3ccccc23)n1)C(F)(F)F (stereo not drawn); 1.9
5) N[C@H](c1csc(C(=O)c2c[nH]c3ccccc23)n1)C(F)(F)F; 27.6

Look at this compound and give its reported EH (hepatic extraction ratio). CC[C@@H](O)c1csc(C(=O)c2c[nH]c3ccc(F)cc23)n1
26.5

Suppose we examine the compound CC[C@@H](O)c1nc(C(=O)c2c[nH]c3cc(F)ccc23)cs1 ; what EH (hepatic extraction ratio) value has been reported?
26.7

Entry under review: O=C(c1nc([C@H](O)C(F)(F)F)cs1)c1c[nH]c2cc(F)ccc12 . Reported EH (hepatic extraction ratio)?
28.9

Please look up its EH (hepatic extraction ratio): CCC(C)(O)c1csc(C(=O)c2c[nH]c3cc(F)ccc23)n1 (stereo not drawn)
25.0

---

- assay-explanation: In vivo pharmacokinetic studies in rats
- Parameters: species or system SD rats
- recorded-conditions: Sprague-Dawley, rat, plasma, po, 10 mg/kg, rats, repeat 10 mg/kg PO QD, Day 1, individual animal
Measured MRT last at 1 day, listed per entry for reference.
Record the value in h, omitting the unit from your answer.

1) CC[C@H](N)c1csc(C(=O)c2c[nH]c3cc(F)ccc23)n1 [ARI-186]; 8.14

# evaluate next
What does the record list as MRT last at 1 day for N[C@@H](c1csc(C(=O)c2c[nH]c3cc(F)ccc23)n1)C(F)(F)F [ARI-224] ?
2.66

---

- assay-explanation: In vivo pharmacokinetic studies in mice
- Set-up: species or system Balb/C mice
- recorded-conditions: mouse, plasma; Balb/C mice, single dose PO 10 mg/kg
experimental-readout: MRT inf (h)
Enter your answer as a number in h; do not include the unit.

Query: MRT inf; subject: CC[C@H](N)c1csc(C(=O)c2c[nH]c3cc(F)ccc23)n1
8.21

---

- Tested on: rat hepatocytes
- assay-explanation: Hepatocyte intrinsic clearance assay (metabolic stability), rat hepatocytes
- Assay type: in vitro ADME
- recorded-conditions: Rat Hepatocytes; well stirred liver model, fu=1
Items are presented alongside their recorded EH (hepatic extraction ratio).

1. O=C(c1nc([C@@H](O)C(F)(F)F)cs1)c1c[nH]c2cc(F)ccc12; 17.7%

Missing value: EH (hepatic extraction ratio), rat hepatocytes, entry N[C@@H](c1csc(C(=O)c2c[nH]c3ccccc23)n1)C(F)(F)F . Fill in?
43.9%

Please provide the recorded EH (hepatic extraction ratio) for N[C@@H](c1csc(C(=O)c2c[nH]c3cc(F)ccc23)n1)C(F)(F)F , tested on rat hepatocytes.
29.0%

Notebook entry, rat hepatocytes assay: EH (hepatic extraction ratio) of O=C(c1nc(C(O)C(F)(F)F)cs1)c1c[nH]c2ccccc12 (stereo not shown) = ?
43.7%

---

- system-under-test: CYP1A2 (Homo sapiens)
- Construct: from tissue; host or cells: human liver microsomes
- Sequence (P05177 1-516): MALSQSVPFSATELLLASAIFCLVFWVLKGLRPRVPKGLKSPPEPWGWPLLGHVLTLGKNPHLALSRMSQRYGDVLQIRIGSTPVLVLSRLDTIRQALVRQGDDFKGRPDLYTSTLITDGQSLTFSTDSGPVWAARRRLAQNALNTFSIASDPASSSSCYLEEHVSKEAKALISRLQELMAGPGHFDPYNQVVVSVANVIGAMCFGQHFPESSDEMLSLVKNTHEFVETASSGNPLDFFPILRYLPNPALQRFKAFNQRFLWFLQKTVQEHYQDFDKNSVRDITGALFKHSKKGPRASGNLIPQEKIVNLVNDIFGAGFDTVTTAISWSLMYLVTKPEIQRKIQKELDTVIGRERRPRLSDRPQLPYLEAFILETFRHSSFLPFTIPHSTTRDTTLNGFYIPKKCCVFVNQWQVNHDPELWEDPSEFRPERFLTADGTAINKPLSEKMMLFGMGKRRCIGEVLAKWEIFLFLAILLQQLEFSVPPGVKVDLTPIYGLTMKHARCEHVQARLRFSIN
- assay-explanation: CYP profiling: human liver microsomes with CYP1A2 inhibitor furafylline
- Type: in vitro ADME
- Set-up: concentration or dose not given beside the values
- recorded-conditions: HLMs
# label = label 1 if % Compound Metabolized at 30 min, CYP1A2 Inhibitor >= 7% else label 0

1) CC(C)(N)c1csc(C(=O)c2c[nH]c3cc(F)ccc23)n1; label 1
2) Cc1ncc2n1-c1ccc(Cl)cc1C(c1ccccc1F)=NC2; label 1
3) O=C(c1nc([C@H](O)C(F)(F)F)cs1)c1c[nH]c2cc(F)ccc12; label 1
4) NC(c1csc(C(=O)c2c[nH]c3ccccc23)n1)C(F)(F)F (centres unmarked); label 0
5) O=C(c1nc(C2(O)CC2)cs1)c1c[nH]c2cc(F)ccc12; label 1
6) N[C@@H](c1csc(C(=O)c2c[nH]c3ccccc23)n1)C(F)(F)F; label 0

Say whether CC[C@H](N)c1csc(C(=O)c2c[nH]c3cc(F)ccc23)n1 shows % Compound Metabolized at 30 min, CYP1A2 Inhibitor of 7% or more.
label 1

Could you please find out whether NC1(c2csc(C(=O)c3c[nH]c4cc(F)ccc34)n2)CC1 has % Compound Metabolized at 30 min, CYP1A2 Inhibitor that meets 7% or exceeds it?
label 1

Decide: % Compound Metabolized at 30 min, CYP1A2 Inhibitor of CC(C)(O)c1csc(C(=O)c2c[nH]c3cc(F)ccc23)n1 >= 7%?
label 0

Attribution: patent US11390621B2
